# tgt: T1, hANGPTL3(17-169)-mFc (human)
# T1 construct: also called N-terminal coiled-coil domain of hANGPTL3 with a C-terminal mouse Fc fusion
# T1 chain: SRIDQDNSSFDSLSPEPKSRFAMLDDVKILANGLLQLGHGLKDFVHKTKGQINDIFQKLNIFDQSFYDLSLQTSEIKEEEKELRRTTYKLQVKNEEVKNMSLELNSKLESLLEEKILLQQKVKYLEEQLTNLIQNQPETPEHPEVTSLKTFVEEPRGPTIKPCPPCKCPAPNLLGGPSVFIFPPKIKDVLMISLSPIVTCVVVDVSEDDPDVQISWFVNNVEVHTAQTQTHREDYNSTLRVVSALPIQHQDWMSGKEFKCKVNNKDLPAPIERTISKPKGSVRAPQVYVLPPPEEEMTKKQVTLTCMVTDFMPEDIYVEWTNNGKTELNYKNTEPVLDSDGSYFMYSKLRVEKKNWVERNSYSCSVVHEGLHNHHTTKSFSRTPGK
# assayRemarks: SPR Biacore, antigen captured, 25C, pH 7.4, HBS-EP
measurementKind: t1/2 (min)
Write down the numeric answer in min and omit the unit.

Recorded results for 2 binders are shown here.
H4H1263S (antibody, IgG4, V domains shown) VH: QVQLVQSGGGVVQPGRSLRLSCAASGFTFSTYGMHWVRQAPGKGLEWMAVISFDRGNKYYADSVKGRFTISRDNSKNTLYLQMNSLRAEDTAVYYCAKGGGSGTFYYYYGMDVWGQGTTVTVSS VL: DIQMTQSPSSVSASVGNRVTITCRASQGISSWLAWYHQKPGKVPKVLIYAASSLQSGVPSRFSGSGSGTDFTLTISSLQPEDFATYYCQQANSFPFTFGPGTKVEIKR; 3
H4H1296P (antibody, IgG4, V domains shown) VH: QVQLVESGGVSVKPGGSLRLSCAASGFTFSDYYMSWIRQAPGKGLEWVSYIGSSGTNDYYADSVKGRFTISRDNAKNSLYLQMDSLRAEDTAVYYCARDSSQMGFDYWGQGTLVTVSS VL: DIQMTQSPSSLSASVGDRVTITCRASQNIINFLNWYQQRPGKAPQLLIYVAASLQSGVPSRFTGSGYGTDFTLTISSLQPEDFATYYCQQTYTNPLTFGGGTKVEIKR; 295

Entry H4H1250P (antibody, IgG4, V domains shown) VH: QVQLVESGGGVVQPGRSLRLSCAASGFTFSSYGMHWVRQAPGKGLEWVAVISNDGSNKYYVDSVKGRFTMGRDNSKNTLYLQMNSLRVEDTAVYYCAKGAGTLYYYYYGMDVWGQGTTVTVSS VL: DIQMTQSPSTLSASVGNRVTITCRASQSISSWLAWYQQKPGKAPKFLIYKASSLESGVPSRFSGSGSGTEFTLTITSLQPDDFATYYCQQYNIYSWTFGQGTKVEIK has what t1/2?
18
